Hi there, I'd appreciate the recorded kon for every entry that follows.
# studySystem: T1, ActRII-ECD (extracellular domain of mouse ActRII, residues 1-102) (mouse, UniProt P27038 20-135)
# T1 construct: extracellular domain; also called type II receptor ECD
# T1 sequence (P27038 20-135): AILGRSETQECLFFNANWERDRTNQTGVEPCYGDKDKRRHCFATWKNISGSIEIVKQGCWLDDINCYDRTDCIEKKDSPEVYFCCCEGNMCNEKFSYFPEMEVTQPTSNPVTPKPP
# measurementDescription: SPR (BIAcore), receptor ECD immobilized, ligand flowed; 1:1 Langmuir with mass transfer; single trial
Numeric answer only, unit M⁻¹ s⁻¹ assumed.

The binder identified as AB2-015 (1b2a3b4b5b6a activin/BMP-2 chimera) (ligand) MQAKHKQRKRLKSSCKRHPLYVDFSDVGWNDWIIAPSGYHANYCDGECPFPLADHLNSTNHAIVQTLVNSVNSKIPKACCVPTELSAISMLYYDDGQNIIKKDIQNMIVEECGCS registered its kon at 1.61e+06

The binder identified as AB2-011 (1b2b3b4b5a6a activin/BMP-2 chimera) (ligand) MQAKHQQRKRLKSSCKRHPLYVDFSDVGWNDWIVAPPGYHAFYCHGECPFPLADHLNSTNHAIVQTLVNSVNSKIPKACCVPTKLRPSMLYYDDGQNIIKKDIQNMIVEECGCS registered its kon at 646000

The binder identified as AB2-012 (1b2b3b4b5b6a activin/BMP-2 chimera) (ligand) MQAKHKQRKRLKSSCKRHPLYVDFSDVGWNDWIVAPPGYHAFYCHGECPFPLADHLNSTNHAIVQTLVNSVNSKIPKACCVPTELSAISMLYYDDGRNIIKKDIQNMIVEECGCS registered its kon at 3.39e+06

The binder identified as AB2-004 (1b2a3b4b5a6a activin/BMP-2 chimera) (ligand) MQAKHKQRKRLKSSCKRHPLYVDFSDVGWNDWIIAPSGYHANYCDGECPFPLADHLNSTNHAIVQTLVNSVNSKIPKACCVPTKLRPMSMLYYDDGQNIIKKDIQNMIVEECGCS registered its kon at 491000

The binder identified as Activin-βA (ligand, also called Activin-A) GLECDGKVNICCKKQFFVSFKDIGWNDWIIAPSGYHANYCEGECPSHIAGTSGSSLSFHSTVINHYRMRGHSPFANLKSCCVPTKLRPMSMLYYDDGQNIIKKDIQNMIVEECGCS registered its kon at 3.52e+06
